Provenance of the data: ChEMBL document CHEMBL4680130

# TESTED SYSTEM: Adenosine receptor A1 (Rattus norvegicus)
# MEASUREMENT DESCRIPTION: Displacement of [3H]CCPA from adenosine receptor A1 in rat brain cortex membranes at 0.1 uM incubated for 90 mins by radioligand competition assay
# CONDITION LABEL: Cell membrane, filed as antagonist
Would you please tag the item T when its inhibition is 20% or above, and F when it is below?

                               smiles_input  class_label
0  O=C(Nc1nc(-c2ccccc2)c(-c2nc3ccccc3c(=O)n2-c2ccc(Cl)cc2)s1)c1ccccc1            F
1  COc1ccc(-n2c(-c3sc(NC(=O)c4ccccc4)nc3-c3ccccc3)nc3ccccc3c2=O)cc1            F
2  COc1ccc(C(=O)Nc2nc(-c3ccccc3)c(-c3nc4ccccc4c(=O)n3-c3ccccc3)s2)cc1            F
3  Cc1ccc(-n2c(-c3sc(NC(=O)c4ccccc4)nc3-c3ccccc3)nc3ccccc3c2=O)cc1            T
4  O=C(Nc1nc(-c2ccccc2)c(-c2nc3ccccc3c(=O)n2-c2ccccc2)s1)c1ccccc1            F
5  COc1ccc(C(=O)Nc2nc(-c3ccccc3)c(-c3nc4ccccc4c(=O)n3-c3ccc(C)cc3)s2)cc1            T
6  COc1ccc(C(=O)Nc2nc(-c3ccccc3)c(C(=O)c3ccc(F)cc3F)s2)cc1            T

---

# TESTED SYSTEM: UniProt:P25099
# Sequence (whole entry): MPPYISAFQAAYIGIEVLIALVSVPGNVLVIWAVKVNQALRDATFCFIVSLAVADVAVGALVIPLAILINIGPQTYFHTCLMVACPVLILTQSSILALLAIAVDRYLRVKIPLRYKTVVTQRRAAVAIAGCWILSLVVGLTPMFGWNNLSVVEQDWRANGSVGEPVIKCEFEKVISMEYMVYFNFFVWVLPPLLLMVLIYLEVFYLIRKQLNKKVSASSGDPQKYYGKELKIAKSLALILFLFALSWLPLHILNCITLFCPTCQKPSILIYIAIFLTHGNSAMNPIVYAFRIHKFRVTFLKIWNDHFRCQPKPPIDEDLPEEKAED
# MEASUREMENT DESCRIPTION: Displacement of [3H]CCPA from adenosine receptor A1 in rat brain cortex membranes at 0.1 uM incubated for 90 mins by radioligand competition assay
# CONDITION LABEL: Cell membrane
MEASUREMENT NAME: inhibition (%)

>>> df
                               smiles_input  observed_result
0  COc1ccc(C(=O)Nc2nc(-c3ccccc3)c(-c3nc4ccccc4c(=O)n3-c3ccc(OC)cc3)s2)cc1               17
1  O=C(Nc1nc(-c2ccccc2)c(-c2nc3ccccc3c(=O)n2-c2ccccc2)s1)c1ccco1               26
2  Cc1ccc(-n2c(-c3sc(NC(=O)c4ccco4)nc3-c3ccccc3)nc3ccccc3c2=O)cc1               25
3  O=C(Nc1nc(-c2ccccc2)c(-c2nc3ccccc3c(=O)n2-c2ccc(Cl)cc2)s1)c1ccco1               24
4  COc1ccc(-n2c(-c3sc(NC(=O)c4ccco4)nc3-c3ccccc3)nc3ccccc3c2=O)cc1               25

---

Target chain: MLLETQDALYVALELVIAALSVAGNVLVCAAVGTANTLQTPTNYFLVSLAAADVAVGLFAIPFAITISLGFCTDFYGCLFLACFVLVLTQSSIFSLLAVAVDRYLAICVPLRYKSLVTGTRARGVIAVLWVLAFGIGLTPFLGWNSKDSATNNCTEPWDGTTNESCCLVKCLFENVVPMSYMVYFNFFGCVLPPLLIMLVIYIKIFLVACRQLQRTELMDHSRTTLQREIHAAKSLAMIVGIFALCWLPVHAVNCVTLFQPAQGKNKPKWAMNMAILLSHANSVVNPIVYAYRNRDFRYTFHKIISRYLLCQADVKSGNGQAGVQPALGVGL
MEASUREMENT NAME: Ki

>>> df
                               smiles_input  observed_result
0  O=C(Nc1nc(-c2ccccc2)c(C(=O)c2ccc(F)cc2F)s1)c1ccco1         > 100 nM
1  COc1ccc(C(=O)Nc2nc(-c3ccccc3)c(-c3nc4ccccc4c(=O)n3-c3ccc(OC)cc3)s2)cc1         > 100 nM
2  CCCCn1c(=O)c2[nH]c(C34CC5CC(CC3C5)C4)nc2n(CCCO)c1=O           187 nM
3  Cc1ccc(-n2c(-c3sc(NC(=O)c4ccco4)nc3-c3ccccc3)nc3ccccc3c2=O)cc1         > 100 nM
4  COc1ccc(C(=O)Nc2nc(-c3ccccc3)c(C(=O)c3ccc(C)cc3)s2)cc1         > 100 nM

---

Parameter: inhibition. Scope: all listed entries.
# TESTED SYSTEM: Adenosine receptor A2a (Homo sapiens)
# Sequence (P29274 whole entry): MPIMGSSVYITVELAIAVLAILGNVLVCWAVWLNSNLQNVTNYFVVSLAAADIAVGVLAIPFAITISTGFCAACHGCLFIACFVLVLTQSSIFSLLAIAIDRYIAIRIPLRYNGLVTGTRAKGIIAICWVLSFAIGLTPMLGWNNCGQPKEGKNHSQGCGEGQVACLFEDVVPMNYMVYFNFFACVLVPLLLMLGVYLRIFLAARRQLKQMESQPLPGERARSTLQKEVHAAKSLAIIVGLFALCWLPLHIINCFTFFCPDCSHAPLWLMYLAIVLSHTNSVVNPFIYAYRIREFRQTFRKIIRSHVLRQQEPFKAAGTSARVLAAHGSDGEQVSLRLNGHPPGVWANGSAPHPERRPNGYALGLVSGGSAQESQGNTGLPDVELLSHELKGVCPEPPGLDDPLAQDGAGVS
# MEASUREMENT DESCRIPTION: Displacement of [3H]MSX2 from human adenosine receptor A2A expressed in HEK293 cell membranes at 0.1 uM incubated for 30 mins by radioligand competition assay relative to control
# CONDITION LABEL: Cell membrane, dose 1 µM, in the assay text read “at 1 uM” for “at 0.1 uM”
MEASUREMENT NAME: inhibition (%)

>>> df
                               smiles_input  observed_result
0  COc1ccc(C(=O)Nc2nc(-c3ccccc3)c(-c3nc4ccccc4c(=O)n3-c3ccccc3)s2)cc1               20
1  COc1ccc(-n2c(-c3sc(NC(=O)c4ccco4)nc3-c3ccccc3)nc3ccccc3c2=O)cc1               11
2  O=C(Nc1nc(-c2ccccc2)c(-c2nc3ccccc3c(=O)n2-c2ccccc2)s1)c1ccco1                5
3  COc1ccc(C(=O)Nc2nc(-c3ccccc3)c(C(=O)c3ccc(C)cc3)s2)cc1               28
4  COc1ccc(-n2c(-c3sc(NC(=O)c4ccccc4)nc3-c3ccccc3)nc3ccccc3c2=O)cc1                3
5  COc1ccc(C(=O)Nc2nc(-c3ccccc3)c(C(=O)c3ccc(F)cc3F)s2)cc1               14
6  COc1ccc(C(=O)Nc2nc(-c3ccccc3)c(-c3nc4ccccc4c(=O)n3-c3ccc(OC)cc3)s2)cc1               10
7  O=C(Nc1nc(-c2ccccc2)c(-c2nc3ccccc3c(=O)n2-c2ccc(Cl)cc2)s1)c1ccco1                8
8  Cc1ccc(-n2c(-c3sc(NC(=O)c4ccco4)nc3-c3ccccc3)nc3ccccc3c2=O)cc1                1

---

# TESTED SYSTEM: Adenosine receptor A1 (Rattus norvegicus)
# MEASUREMENT DESCRIPTION: Displacement of [3H]DPCPX from rat adenosine receptor A1 by radioligand competition assay
MEASUREMENT NAME: Ki (nM)

In [3]: df
Out[3]:
                               smiles_input  measurement_name  observed_result
0  Cc1ccc(C(=O)c2sc(NC(=O)c3ccco3)nc2-c2ccccc2)cc1                Ki           0.0628
1  O=C(Nc1nc(-c2ccccc2)c(C(=O)c2ccc(Cl)cc2)s1)c1ccccc1                Ki           0.0867
2  O=C(Nc1nc(-c2ccccc2)c(C(=O)c2ccc(F)cc2F)s1)c1ccccc1                Ki             2.93
3  COc1ccc(C(=O)Nc2nc(-c3ccccc3)c(C(=O)c3ccc(C)cc3)s2)cc1                Ki           0.0709

---

For reference, Ki measured on UniProt P29274:
MEASUREMENT NAME: Ki

>>> print(df.to_string())
                                smiles_input  observed_result
 0  COc1ccc(C(=O)Nc2nc(-c3ccccc3)c(-c3nc4ccccc4c(=O)n3-c3ccc(C)cc3)s2)cc1        > 1000 nM
 1  COc1ccc(C(=O)Nc2nc(-c3ccccc3)c(C(=O)c3ccccc3)s2)cc1        > 1000 nM
 2  O=C(Nc1nc(-c2ccccc2)c(C(=O)c2ccc(F)cc2F)s1)c1ccccc1          77.7 nM
 3  Cc1ccc(C(=O)c2sc(NC(=O)c3ccco3)nc2-c2ccccc2)cc1        > 1000 nM
 4  CCCOC(=O)c1c(-c2ccccc2)nc(CC)c(C(=O)SCC)c1CCC          3660 nM
 5  COc1ccc(C(=O)Nc2nc(-c3ccccc3)c(-c3nc4ccccc4c(=O)n3-c3ccc(OC)cc3)s2)cc1        > 1000 nM
 6  O=C(Nc1nc(-c2ccccc2)c(-c2nc3ccccc3c(=O)n2-c2ccccc2)s1)c1ccco1        > 1000 nM
 7  Cc1ccc(-n2c(-c3sc(NC(=O)c4ccco4)nc3-c3ccccc3)nc3ccccc3c2=O)cc1        > 1000 nM
 8  O=C(Nc1nc(-c2ccccc2)c(C(=O)c2ccc(Cl)cc2)s1)c1ccccc1          39.1 nM
 9  O=C(Nc1nc(-c2ccccc2)c(C(=O)c2ccc(F)cc2F)s1)c1ccco1           132 nM
10  O=C(Nc1nc(-c2ccccc2)c(-c2nc3ccccc3c(=O)n2-c2ccccc2)s1)c1ccccc1        > 1000 nM
